Target: B-cat-Halo (beta-catenin HaloTag NanoBRET construct expressed in HEK293 cells) (UniProt P35222)
Sequence (P35222 whole entry): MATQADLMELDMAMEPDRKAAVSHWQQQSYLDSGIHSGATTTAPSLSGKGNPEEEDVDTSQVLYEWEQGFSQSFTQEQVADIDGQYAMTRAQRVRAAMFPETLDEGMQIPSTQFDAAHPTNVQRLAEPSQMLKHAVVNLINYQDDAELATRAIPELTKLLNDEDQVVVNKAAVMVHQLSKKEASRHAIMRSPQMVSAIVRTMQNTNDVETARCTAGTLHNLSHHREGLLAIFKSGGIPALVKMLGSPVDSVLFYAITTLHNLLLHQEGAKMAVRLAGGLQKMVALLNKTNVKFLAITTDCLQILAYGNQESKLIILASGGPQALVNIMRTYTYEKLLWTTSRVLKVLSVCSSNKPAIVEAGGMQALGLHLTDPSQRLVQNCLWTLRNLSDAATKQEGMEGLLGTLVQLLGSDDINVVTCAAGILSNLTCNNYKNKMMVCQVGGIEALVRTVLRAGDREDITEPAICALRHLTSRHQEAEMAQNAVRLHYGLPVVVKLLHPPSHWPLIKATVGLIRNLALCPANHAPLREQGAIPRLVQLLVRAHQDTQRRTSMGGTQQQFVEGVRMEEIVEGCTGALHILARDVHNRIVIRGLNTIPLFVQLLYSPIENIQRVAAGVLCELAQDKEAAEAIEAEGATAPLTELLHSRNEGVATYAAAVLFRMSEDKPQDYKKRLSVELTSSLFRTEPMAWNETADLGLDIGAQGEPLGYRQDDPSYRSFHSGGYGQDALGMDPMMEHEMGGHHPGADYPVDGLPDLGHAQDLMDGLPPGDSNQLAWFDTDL
Assay: NanoBRET in HEK293 cells, Bcat-Halo / TCF4-Luc (competitor TCF4-Luc); absolute IC50
pIC50: −log10 of the molar value. Starred links: 1 amine or outer side, 2 acyl side, 3 side chain; linkers in the order of their positions; H or OH if unused. Positions of bridges follow the written chain, without caps; N, C: chain ends. Non-standard residues stand in square brackets, D forms with d. Primed or numbered codes have the meaning given here. PyrS2″ = (S)-3-amino-1-((pent-4-en-1-yloxy)carbonyl)pyrrolidine-3-carboxylic acid (stapling residue), C=CCCCOC(=O)N1CC[C@@](N[*:1])(C(=O)[*:2])C1; B5(5) = 2,2-bis(4-pentenyl)glycine, 2-amino-2-(pent-4-en-1-yl)hept-6-enoic acid (stitching residue), C=CCCCC(CCCC=C)(N[*:1])C(=O)[*:2]; PyrS2 = (S)-3-amino-1-((pent-4-en-1-yloxy)carbonyl)pyrrolidine-3-carboxylic acid, C=CCCCOC(=O)N1CC[C@@](N[*:1])(C(=O)[*:2])C1; Phe(3-COOH) = N[C@@H](Cc1cccc(C(=O)O)c1)C(=O)O; Phe(2-CF3) = N[C@@H](Cc1ccccc1C(F)(F)F)C(=O)O; Bta = N[C@@H](Cc1csc2ccccc12)C(=O)O; αAllylPro = C=CC[C@@]1(C(=O)O)CCCN1; tBuAla = CC(C)(C)C[C@H](N)C(=O)O; 3Thi = N[C@@H](Cc1ccsc1)C(=O)O; Aib = CC(C)(N)C(=O)O
property-name: pIC50

Here are 2 binders together with their reported answers.
| binder | pIC50 |
| --- | --- |
| Ac-[αAllylPro]D[tBuAla][B5(5)]NT[Aib]AFN[PyrS2″][3Thi][Bta]N-NH2 (staple 1-4, 4-11) [I-2415] | < 4.70 |
| Ac-[αAllylPro]D[tBuAla][B5(5)]NT[Aib]AFN[PyrS2″][3Thi][Bta]H-NH2 (staple 1-4, 4-11) [I-2414] | < 4.70 |

Lookup: Form field: reported pIC50 of Ac-[αAllylPro]D[tBuAla][B5(5)]D[Phe(3-COOH)]AAFL[PyrS2][Phe(2-CF3)][Bta]QL[dL]-NH2 (staple 1-4, 4-11) [I-2396]
Found: 5.08
